Just for reference, patent US11753403B2 is where these values come from.

Biological target: Human eIF4E (aa 28-217) / biotin labeled 4G2 peptide (Homo sapiens (Human), UniProt P06730)
Sequence (P06730 28-217): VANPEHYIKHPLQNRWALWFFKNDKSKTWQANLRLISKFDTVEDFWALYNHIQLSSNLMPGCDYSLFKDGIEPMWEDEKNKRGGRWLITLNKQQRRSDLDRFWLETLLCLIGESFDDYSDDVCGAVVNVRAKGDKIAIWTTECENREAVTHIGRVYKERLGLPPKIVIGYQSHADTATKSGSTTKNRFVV
Assay: Human eIF4E/4G2 binding assay (TR-FRET)
Details: Human eIF4E/4G2 TR-FRET binding assay; head says IC50, legend says EC50
pIC50: −log10 of the molar value.
propertyLabel: pIC50

Suppose we examine the compound "CC(C)c1sc(Nc2ncccc2C(=O)O)nc1-c1ccc(Cl)c(C(F)(F)F)c1" ; what pIC50 value has been reported?
≥ 6.00

Now give it for "Cc1cc(Nc2nc(-c3ccc(Cl)c(Cl)c3)c(CC(C)C)s2)cc(C(=O)O)c1" too.
5.00 to 6.00

Now give it for "CC(C)Cc1sc(Nc2cncc(C(=O)O)c2)nc1-c1ccc(Cl)c(Cl)c1" too.
5.00 to 6.00

Now give it for CC(C)Cc1sc(NCC(CCCCN(C)C)C(=O)O)nc1-c1ccc(Cl)c(Cl)c1 (stereo not drawn) too.
< 5.00

Now give it for CCOC(=O)N1CCN(c2nc(-c3ccc(Cl)c(Cl)c3)c(CC(C)C)s2)CC1C(=O)O (stereo not drawn) too.
5.00 to 6.00
